target-entity: T1, GLP-1R in the INS1e assay (UniProt P32301 22-463, limits assumed)
T1 sequence (looked up): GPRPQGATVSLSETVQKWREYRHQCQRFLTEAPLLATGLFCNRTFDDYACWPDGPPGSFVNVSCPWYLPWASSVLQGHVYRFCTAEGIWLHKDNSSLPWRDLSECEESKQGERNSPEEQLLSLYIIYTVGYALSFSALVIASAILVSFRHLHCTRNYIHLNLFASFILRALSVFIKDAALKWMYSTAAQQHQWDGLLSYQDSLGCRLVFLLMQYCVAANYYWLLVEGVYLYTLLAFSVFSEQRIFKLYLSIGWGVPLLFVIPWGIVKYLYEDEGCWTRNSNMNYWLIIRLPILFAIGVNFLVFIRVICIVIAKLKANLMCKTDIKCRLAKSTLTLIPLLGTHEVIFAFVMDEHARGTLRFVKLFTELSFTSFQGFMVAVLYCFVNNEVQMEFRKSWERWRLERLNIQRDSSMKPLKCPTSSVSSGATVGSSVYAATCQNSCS
assay-overview: cell-based or functional assay
Starred links: 1 amine or outer side, 2 acyl side, 3 side chain; linkers in the order of their positions; H or OH if unused. Non-standard residues stand in square brackets, D forms with d. Groups on a side chain read outwards from the residue. Primed or numbered codes have the meaning given here. No end group written: not given here. *: point of attachment. γGlu = O=C(O)[C@H](CCC(=O)[*:2])N[*:1]; Palmitoyl = CCCCCCCCCCCCCCCC(=O)*; αMeF = C[C@](N)(Cc1ccccc1)C(=O)O; αMeK = C[C@](N)(CCCCN)C(=O)O; Lauroyl = CCCCCCCCCCCC(=O)*; PEG2′ = not defined here; Aib = CC(C)(N)C(=O)O
readout-label: INS1e assay EC50 (cAMP) n2 (nM)
Report the value in nM with no unit label.

* H[Aib]EGTFTSDVSK([PEG2′-PEG2′-γGlu-Lauroyl])FLEGEAAEEFIK([PEG2′-PEG2′-γGlu-Lauroyl])WVVEGG-NH2 [SEQ ID NO: 237] | 24.3

Could you now consider this next binder?
The recorded INS1e assay EC50 (cAMP) n2 for H[Aib]EGS[αMeF]TSDVSK([PEG2′-PEG2′-γGlu-Palmitoyl])FLEGEAA[αMeK]EFIK([PEG2′-PEG2′-γGlu-Palmitoyl])FVVEGG-NH2 [SEQ ID NO: 250] is 39.4
